- Tested on: ACHN renal
- assay.details: NCI tumour cell line growth inhibition, 48 h
Where a SMILES comes first, the peptide text is derived from it. [ ]: non-standard residue; d: D form. Phe(4-Cl) = N[CH](Cc1ccc(Cl)cc1)C(=O)O
# reported TGI; entries follow

Please review the following examples before continuing.
>  <molecule>
CC(O)C(NC(=O)C(Cc1ccccc1)NC(=O)C(NC(=O)C(CCCCN)NC(=O)C(Cc1c[nH]c2ccccc12)NC(=O)C(Cc1ccc(O)cc1)NC(=O)C(Cc1ccc(Cl)cc1)NC(=O)C(N)Cc1ccccc1)C(C)O)C(N)=O (stereo not drawn) (H-F[Phe(4-Cl)]YWKTFT-NH2; configuration not given here)

>  <target.of.assay>
ACHN renal

>  <TGI>
40.9 µM

$$$$
>  <molecule>
CC(C)OC(=O)c1ccc(NCC2=CC(=O)C=CC2=O)cc1

>  <target.of.assay>
ACHN renal

>  <TGI>
24.3 µM

$$$$
>  <molecule>
O=C(/C=C/c1cccc([N+](=O)[O-])c1)N1CCN(CCOC(c2ccccc2)c2ccccc2)CC1

>  <target.of.assay>
ACHN renal

>  <TGI>
> 100 µM

$$$$

What value of TGI has been reported for the following molecule? Nc1ccc(/C=C/c2ccnc3ccccc23)cc1
> 100 µM

What value of TGI has been reported for the following molecule? CC(C)C[C@H]1[C@@H](OCc2ccccc2)COS(=O)(=O)N1[C@H](C)c1ccccc1
> 100 µM

What value of TGI has been reported for the following molecule? COc1cc(OC(=O)c2c(O)cc(O)c(O)c2C)cc(C)c1C(=O)Oc1cc(C)c(C(=O)O)c(O)c1
> 100 µM

What value of TGI has been reported for the following molecule? CCSc1nnc(Sc2c3ccccc3nc3ccccc23)s1
17.7 µM

What value of TGI has been reported for the following molecule? COc1ccc(C2C(C(=O)O)=C(CO)Oc3cc4c(cc32)OCO4)cc1 (stereo not drawn)
> 100 µM

---

- Tested on: UO-31 renal
- assay.details: NCI tumour cell line growth inhibition, 48 h; in the data active means GI50 below about 0.43 µM; inactive means the rest
Please reply with one of these outcomes: active, inactive

Solved entries (count: 3):
>  <compound>
CCN(CC)CCCC(C)Nc1c(C)cnc2cc(Cl)c(C)cc12 (configuration not stated)

>  <assigned.class>
inactive

$$$$
>  <compound>
O=C(N/N=C/c1cccc(O)c1O)c1ccccc1

>  <assigned.class>
inactive

$$$$
>  <compound>
CCN(CC)CCN1CC(O)=C(c2nc(-c3ccc(Cl)cc3)cs2)C1=N

>  <assigned.class>
inactive

$$$$

Called result for COc1cc(OC)c(/C=C/C(=O)c2c(OC)cccc2OC)c(OC)c1
inactive

Called result for CC(=O)OC1CC(O)C23COC(O)C1(C)C2CC(O)C1(C)C3C(=O)C(O)C2(C)C(c3ccoc3)CC3OC321 (configuration not stated)
inactive

Called result for COc1ccc2c(c1)C(=O)c1c-2n(CCCn2ccnc2)c(=O)c2ccccc12
active

Called result for CC1CN1CC(O)C(O)CN1CC1C (configuration not stated)
inactive

---

- Test system: CAKI-1 renal
- assay.details: NCI tumour cell line growth inhibition, 48 h; in the data active = GI50 below about 0.43 µM; inactive = the rest
Please reply with one of these outcomes: 1 (yes) = active, 0 (no) = inactive

Solved entries (count: 2):
>  <smiles.record>
CC/C=C\C[C@@H]1C/C=C2/C(=O)C=C[C@H]2C/C=C\CCCC(=O)O1

>  <assigned.class>
1 (yes)

$$$$
>  <smiles.record>
O=C(CCl)Nc1ccc(Cl)cc1

>  <assigned.class>
0 (no)

$$$$

Called result for COc1ccc(OC)c(/C=C/C(=O)N/N=C/c2ccc(Cl)cc2)c1
1 (yes)

Called result for CCOC(=O)c1c(CN2CCN(c3ccccc3)CC2)n(-c2ccccc2)c2cc(Br)c(O)cc12
0 (no)
